The reported measurements were obtained from patent US6969721B2.

Exercise: state measured melting point for each of the compounds provided.

Please report the recorded melting point for CCCCC1(C(C)(F)F)c2cc(Cl)ccc2Nc2c1cc[nH]c2=O (stereo not shown) .
120 to 122 °C

Give the measured melting point of CCOCC1(C(C)(F)F)c2cc(Cl)ccc2Nc2c1cc[nH]c2=O (stereo not shown) .
265 to 267 °C

Would you kindly share the measured melting point for O=c1[nH]ccc2c1Nc1ccc(Cl)cc1C2(CNC1CC1)C(F)(F)F (stereo not shown) [Example 22] ?
230 to 235 °C

# query: melting point of entry CCCCC1(C(C)(F)F)c2cc(F)ccc2Nc2c1cc[nH]c2=O (stereo not shown)
267 to 270 °C

# query: melting point of entry CC(C)(C)SCC1(C(F)(F)F)c2cc(Cl)ccc2Nc2c1cc[nH]c2=O (stereo not shown)
247 to 249 °C

Give the measured melting point of CCCCC1(C(C)(F)F)c2cc(C#N)ccc2Nc2c1cc[nH]c2=O (stereo not shown) .
132.2 to 134.7 °C

Sample CCCCC1(C(F)F)c2cc(Cl)ccc2Nc2c1cc[nH]c2=O (stereo not shown) [Example 64a] — what was its melting point?
198 to 200 °C

Which melting point is reported for this compound? CC(C)OCC1(C(F)(F)F)c2cc(Cl)ccc2Nc2c1cc[nH]c2=O (stereo not shown) [Example 36]
195 to 197 °C

Request the reported melting point associated with COCCC1(C(F)(F)F)c2cc(Cl)ccc2Nc2c1cc[nH]c2=O (stereo not shown)
268 to 271 °C

Can you share its melting point? I mean this compound: O=c1[nH]ccc2c1Nc1ccc(Cl)cc1C2(CNC1CC1)C(F)(F)F (stereo not shown) [Example 32]
242 to 245 °C
